Source listed as patent US11395857B2.

Measured Biodistribution, B16F10 tumour accompanies every entry in the list below.
Test system: B16F10 mouse melanoma
Protocol Notes: Biodistribution of 177Lu-labeled αMSH analogues in mice bearing B16F10 mouse melanoma
Type: in vivo, C57BL/6J mice
Assay Context: 24 h p.i., C57BL/6J mice, B16F10 melanoma
Write the answer as a number in % ID/g, unit excluded.

CCCC[C@H](NC(=O)CN1CCC(NC(=O)CN2CCN(CC(=O)O)CCN(CC(=O)O)CCN(CC(=O)O)CC2)CC1)C(=O)N[C@H]1CC(=O)NCCCC[C@@H](C(N)=O)N(C)C(=O)[C@H](Cc2c[nH]c3ccccc23)N(C)C(=O)[C@H](CCCNC(=N)N)N(C)C(=O)[C@@H](Cc2ccccc2)NC(=O)[C@H](Cc2c[nH]cn2)N(C)C1=O [^177Lu-labeled CCZ01099, metal not drawn]: 2.04

Req: So what's the measured Biodistribution, B16F10 tumour for this one? CCCC[C@H](NC(=O)CN1CCC(NC(=O)[C@H](CCCCNC(=O)CN2CCN(CC(=O)O)CCN(CC(=O)O)CCN(CC(=O)O)CC2)NC(=O)[C@H](CCC(=O)O)NC(=O)CCCc2ccc(I)cc2)CC1)C(=O)N[C@H]1CC(=O)NCCCC[C@@H](C(N)=O)NC(=O)[C@H](Cc2c[nH]c3ccccc23)NC(=O)[C@H](CCCNC(=N)N)NC(=O)[C@@H](Cc2ccccc2)NC(=O)[C@H](Cc2c[nH]cn2)NC1=O [^177Lu-labeled CCZ01082, metal not drawn]
Resp: 7.59

Req: Do the same for CCCC[C@H](NC(=O)CN1CCC(NC(=O)[C@H](CCCCNC(=O)CN2CCN(CC(=O)O)CCN(CC(=O)O)CCN(CC(=O)O)CC2)NC(=O)[C@H](CCC(=O)O)NC(=O)CCCc2ccc(I)cc2)CC1)C(=O)N[C@H]1CC(=O)NCCCC[C@@H](C(N)=O)N(C)C(=O)[C@H](Cc2c[nH]c3ccccc23)NC(=O)[C@H](CCCNC(=N)N)N(C)C(=O)[C@@H](Cc2ccccc2)NC(=O)[C@H](Cc2c[nH]cn2)NC1=O [^177Lu-labeled CCZ01118, metal not drawn] please
Resp: 18.4

---

Protocol Notes: in vivo
Assay Context: male, NRG (NOD.Cg-Rag1tm1Mom Il2rgtm1Wjl/SzJ), mouse, total radioactivity, Tumour/blood
Measured Attribute: tissue to tissue ratio at 1 h
Provide a numeric answer; units are not to be included.

Req: Which tissue to tissue ratio at 1 h reading was recorded for the compound CCCC[C@H](NC(=O)CN1CCC(NC(=O)[C@H](CCCCNC(=O)CN2CCN(CC(=O)O)CCN(CC(=O)O)CCN(CC(=O)O)CC2)NC(=O)CNC(=O)CCCc2ccc(-c3ccc(C)cc3)cc2)CC1)C(=O)N[C@H]1CC(=O)NCCCC[C@@H](C(N)=O)N(C)C(=O)[C@H](Cc2c[nH]c3ccccc23)NC(=O)[C@H](CCCNC(=N)N)N(C)C(=O)[C@@H](Cc2ccccc2)NC(=O)[C@H](Cc2c[nH]cn2)NC1=O [^177Lu-labeled CCZ01158, metal not drawn] ?
Resp: 0.69

---

Protocol Notes: Biodistribution of 177Lu-labeled αMSH analogues in mice bearing B16F10 mouse melanoma
Format: in vivo, C57BL/6J mice
Assay Context: mouse, heart, iv, total radioactivity; 120 h p.i., C57BL/6J mice, B16F10 melanoma; read-out: Biodistribution, Heart
Method: The B16-F10 mouse melanoma cells were cultured and inoculated in mice as described in Example 1. For biodistribution studies, approximately 1-2 MBq of ^177Lu-labeled αMSH analogues via tail vein under anesthesia. At 1, 4, 24, and 120 h p.i., the mice were euthanized by CO2 inhalation. Organs/tissues were harvested and the radioactivity was measured as described in Example 1.
List of tissue uptake at 120 h values.
Output spec: scalar in %ID/g, unitless text.

Some solved entries appear below for comparison.
CCCC[C@H](NC(=O)CN1CCC(NC(=O)[C@H](CCCCNC(=O)CN2CCN(CC(=O)O)CCN(CC(=O)O)CCN(CC(=O)O)CC2)NC(=O)[C@H](CCC(=O)O)NC(=O)CCCc2ccc(I)cc2)CC1)C(=O)N[C@H]1CC(=O)NCCCC[C@@H](C(N)=O)N(C)C(=O)[C@H](Cc2c[nH]c3ccccc23)N(C)C(=O)[C@H](CCCNC(=N)N)N(C)C(=O)[C@@H](Cc2ccccc2)NC(=O)[C@H](Cc2c[nH]cn2)N(C)C1=O [^177Lu-labeled CCZ01088, metal not drawn]: 0.07
CCCC[C@H](NC(=O)CN1CCC(NC(=O)CN2CCN(CC(=O)O)CCN(CC(=O)O)CCN(CC(=O)O)CC2)CC1)C(=O)N[C@H]1CC(=O)NCCCC[C@@H](C(N)=O)N(C)C(=O)[C@H](Cc2c[nH]c3ccccc23)NC(=O)[C@H](CCCNC(=N)N)N(C)C(=O)[C@@H](Cc2ccccc2)NC(=O)[C@H](Cc2c[nH]cn2)NC1=O [^177Lu-labeled CCZ01106, metal not drawn]: 0.01
CCCC[C@H](NC(=O)CN1CCC(NC(=O)[C@H](CCCCNC(=O)CN2CCN(CC(=O)O)CCN(CC(=O)O)CCN(CC(=O)O)CC2)NC(=O)[C@H](CCC(=O)O)NC(=O)CCCc2ccc(I)cc2)CC1)C(=O)N[C@H]1CC(=O)NCCCC[C@@H](C(N)=O)NC(=O)[C@H](Cc2c[nH]c3ccccc23)NC(=O)[C@H](CCCNC(=N)N)NC(=O)[C@@H](Cc2ccccc2)NC(=O)[C@H](Cc2c[nH]cn2)NC1=O [^177Lu-labeled CCZ01082, metal not drawn]: 0.09
CCCC[C@H](NC(=O)CN1CCC(NC(=O)CN2CCN(CC(=O)O)CCN(CC(=O)O)CCN(CC(=O)O)CC2)CC1)C(=O)N[C@H]1CC(=O)NCCCC[C@@H](C(N)=O)N(C)C(=O)[C@H](Cc2c[nH]c3ccccc23)N(C)C(=O)[C@H](CCCNC(=N)N)N(C)C(=O)[C@@H](Cc2ccccc2)NC(=O)[C@H](Cc2c[nH]cn2)N(C)C1=O [^177Lu-labeled CCZ01099, metal not drawn]: 0.02

Req: Report tissue uptake at 120 h for CCCC[C@H](NC(=O)CN1CCC(NC(=O)[C@H](CCCCNC(=O)CN2CCN(CC(=O)O)CCN(CC(=O)O)CCN(CC(=O)O)CC2)NC(=O)[C@H](CCC(=O)O)NC(=O)CCCc2ccc(I)cc2)CC1)C(=O)N[C@H]1CC(=O)NCCCC[C@@H](C(N)=O)N(C)C(=O)[C@H](Cc2c[nH]c3ccccc23)NC(=O)[C@H](CCCNC(=N)N)N(C)C(=O)[C@@H](Cc2ccccc2)NC(=O)[C@H](Cc2c[nH]cn2)NC1=O [^177Lu-labeled CCZ01118, metal not drawn] please.
Resp: 0.05
